So I've got a bunch of compounds here, and I need their Activity values.
Biological target: Eukaryotic translation initiation factor 2-alpha kinase 1 (Homo sapiens)
Experiment: Activation of HRI in human CRL-2813-pBISA-DL(ATF-4) reporter cells assessed as concentration required to obtain F-luciferase expression/R-luciferase expression ratio 3
# value in µM; strip the unit string

Provide Activity, tested on Eukaryotic translation initiation factor 2-alpha kinase 1 (Homo sapiens), for `Cc1cccc(NC(=O)N[C@H]2CC[C@H](Oc3ccc(F)cc3)CC2)c1` .
24.1

Provide Activity, tested on Eukaryotic translation initiation factor 2-alpha kinase 1 (Homo sapiens), for `O=C(Nc1cccc(Br)c1)N[C@H]1CC[C@H](Oc2ccc(F)cc2)CC1` .
5.7

Provide Activity, tested on Eukaryotic translation initiation factor 2-alpha kinase 1 (Homo sapiens), for `O=C(Nc1ccc(OC(F)(F)F)cc1)N[C@H]1CC[C@H](Oc2ccc(F)cc2)CC1` .
0.7

Provide Activity, tested on Eukaryotic translation initiation factor 2-alpha kinase 1 (Homo sapiens), for `O=C(Nc1ccccc1Br)N[C@H]1CC[C@H](Oc2ccc(F)cc2)CC1` .
16.4

Provide Activity, tested on Eukaryotic translation initiation factor 2-alpha kinase 1 (Homo sapiens), for `O=C(Nc1cccc(C(F)(F)F)c1)N[C@H]1CC[C@H](Oc2ccc(OC(F)(F)F)cc2)CC1` .
1.5

Provide Activity, tested on Eukaryotic translation initiation factor 2-alpha kinase 1 (Homo sapiens), for `COC(=O)c1ccccc1NC(=O)N[C@H]1CC[C@@H](Oc2ccc(F)cc2)CC1` .
26.2

Provide Activity, tested on Eukaryotic translation initiation factor 2-alpha kinase 1 (Homo sapiens), for `O=C(Nc1cccc(C(F)(F)F)c1)N[C@H]1CC[C@H](Oc2ccccc2C(F)(F)F)CC1` .
1.2
